measurement_notes: self-splicing fitness, log relative to wild type (ln ratio); higher = more splicing; Tetrahymena group I intron in knt gene, E. coli kanamycin selection, DiMSum; sequences stand for … in CUCUCU…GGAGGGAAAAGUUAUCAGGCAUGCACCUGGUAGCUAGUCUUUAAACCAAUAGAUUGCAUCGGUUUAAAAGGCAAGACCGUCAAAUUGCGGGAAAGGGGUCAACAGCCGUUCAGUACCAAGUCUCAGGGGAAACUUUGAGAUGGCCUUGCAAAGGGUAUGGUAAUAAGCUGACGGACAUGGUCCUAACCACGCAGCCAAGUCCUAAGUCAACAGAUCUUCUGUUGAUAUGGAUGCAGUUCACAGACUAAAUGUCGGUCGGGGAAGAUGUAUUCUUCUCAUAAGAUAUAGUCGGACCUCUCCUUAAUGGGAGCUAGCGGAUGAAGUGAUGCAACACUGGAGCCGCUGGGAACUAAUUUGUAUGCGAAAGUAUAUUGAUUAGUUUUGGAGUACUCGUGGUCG;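 further: selection with 25 µg/mL kanamycin versus none on LB agar overnight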
condition_parameters: 37 °C
Listed below: self-splicing fitness (ln) values for each entry.
Format: numeric value only, no unit, no commentary.

# polymer_sequence, self-splicing fitness (ln)
measured = [
    ("GAAUAGCAAUAUUACGCACC", 0.185),
]

Ask: Consider the sequence shown here: UAAAAGCAAUAUUACGGGGC What is its recorded self-splicing fitness (ln)?
Reply: -2.33

Ask: Consider the sequence shown here: AGGUAGCAAUAUUACGAGGU What is its recorded self-splicing fitness (ln)?
Reply: -2.49

Ask: Consider the sequence shown here: UCUCAGCAAUAUUACGGACG What is its recorded self-splicing fitness (ln)?
Reply: -0.508

---

measurement_notes: self-splicing fitness, log relative to wild type (ln ratio); higher = more splicing; Tetrahymena group I intron in knt gene, E. coli kanamycin selection, DiMSum; sequences stand for … in CUCUCU…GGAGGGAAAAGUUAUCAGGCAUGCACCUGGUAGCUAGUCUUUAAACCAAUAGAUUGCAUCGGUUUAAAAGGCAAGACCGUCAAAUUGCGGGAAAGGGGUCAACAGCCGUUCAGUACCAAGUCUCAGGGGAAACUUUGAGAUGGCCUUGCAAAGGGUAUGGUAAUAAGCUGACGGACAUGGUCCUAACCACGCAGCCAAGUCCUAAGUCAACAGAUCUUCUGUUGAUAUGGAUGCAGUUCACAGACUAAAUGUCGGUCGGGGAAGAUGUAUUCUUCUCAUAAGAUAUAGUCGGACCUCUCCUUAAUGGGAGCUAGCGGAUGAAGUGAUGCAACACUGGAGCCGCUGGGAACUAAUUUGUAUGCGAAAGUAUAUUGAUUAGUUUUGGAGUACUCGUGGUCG
condition_parameters: 37 °C
Response field class: string, computed from recorded self-splicing fitness (ln) by ranges I = under -2, II = from -2 up to -0.8, III = -0.8 and over

Here's what some known entries look like.
# polymer_sequence, cat
measured = [
    ("UGAGAGCAAUAUUACGUUGG", "I"),
    ("CAACAGCAAUAUUACGGCAA", "II"),
    ("CAGGAGCAAUAUUACGAACG", "II"),
    ("ACCUAGCAAUAUUACGUGAG", "III"),
    ("CCCCAGCAAUAUUACGCAGA", "I"),
]

Ask: For AGUUAGCAAUAUUACGCCAA , which self-splicing fitness (ln) bin applies?
Reply: II

Ask: For UAUUAGCAAUAUUACGACCU , which self-splicing fitness (ln) bin applies?
Reply: III

Ask: For AUUUAGCAAUAUUACGGGAG , which self-splicing fitness (ln) bin applies?
Reply: III

Ask: For AUUCAGCAAUAUUACGGGCC , which self-splicing fitness (ln) bin applies?
Reply: II

Ask: For GAUUAGCAAUAUUACGAAGG , which self-splicing fitness (ln) bin applies?
Reply: II

Ask: For AGCGAGCAAUAUUACGGUUC , which self-splicing fitness (ln) bin applies?
Reply: I

Ask: For AGCAAGCAAUAUUACGACCU , which self-splicing fitness (ln) bin applies?
Reply: III

Ask: For UAGAAGCAAUAUUACGUUAU , which self-splicing fitness (ln) bin applies?
Reply: I
